# System: U2OS
# measurement-protocol: Multiplex assay against U2OS
# Format: toxicity, cell-based
# test-settings: human, 24 h, 1 µM, compound concentration 1 uM, replicate 2
# if value of Population Membrane Permeable-Phenotype (%) reaches 10%, tag Criterion met; if it stays below, tag Criterion not met

                                   compound  system                cat
0  CCNc1cc(N[C@H]2CC[C@H](O)CC2)nc(Nc2ccc3c(ccn3Cc3ccccc3)c2)n1    U2OS      Criterion met
1  C=CCn1c(=O)c2cnc(Nc3ccc(N4CCN(C)CC4)cc3)nc2n1-c1cccc(C(C)(C)O)n1    U2OS      Criterion met
2  CCn1c(=O)c(-c2ccc(-c3cncs3)cc2Cl)cc2cnc(Nc3ccc(N4CCN(C)CC4)cc3)nc21    U2OS  Criterion not met
3  NC(=O)c1cccc(-c2cc(Nc3ccc(OC(F)(F)F)cc3)ncn2)c1    U2OS      Criterion met
4  COc1cc2ncnc(Nc3ccc(F)c(Cl)c3)c2cc1NC(=O)/C=C/CN1CCCCC1 [DACOMITINIB ANHYDROUS]    U2OS      Criterion met
5  COc1ccc(-c2ccc3c(N4CCOCC4)nc(N4C[C@@H](C)O[C@@H](C)C4)nc3n2)cc1CO    U2OS  Criterion not met
6  O=C(Nc1ccc(Cl)cc1)Nc1cccc(-c2cccc(N3CCCC3)n2)c1    U2OS  Criterion not met
7  O=C1N/C(=N/c2ccccc2F)S/C1=C\c1ccc(C(=O)O)cc1    U2OS  Criterion not met
8  O=C(Cc1ccc(-c2ccc(OCCN3CCOCC3)cc2)cn1)NCc1ccccc1    U2OS  Criterion not met

----------
Recorded measurements of Total Cell Count, one per entry
# Tested on: Fibroblast
# measurement-protocol: Multiplex assay against human fibroblast
# Format: toxicity, cell-based
# test-settings: 12 h, 10 µM, compound concentration 10 uM, replicate 1
result-type: Total Cell Count

>>> print(df.to_string())
                                    molecule  numeric_readout
 0  O=C(Cc1ccc(-c2ccc(OCCN3CCOCC3)cc2)cn1)NCc1ccccc1 [TIRBANIBULIN]              134
 1  COC(=N)c1nc2ccc3ncnc(Nc4ccc(OC)cc4F)c3c2s1              238
 2  O=C(Nc1ccc(-n2nc(-c3cccnc3)cc2C(F)(F)F)cn1)c1ccc(-c2ccccc2)c(F)c1 [BI 2049]               93
 3  CNC(=O)c1ccc(Nc2nc(OC3CCCC3)c3c(-c4ccc5nc(C)oc5c4)c[nH]c3n2)c(OC)c1              194
 4  O=C1N/C(=N/c2ccccc2F)S/C1=C\c1ccc(C(=O)O)cc1              406
 5  CN(C)C(=O)C(CCN1CCC(O)(c2ccc(Cl)cc2)CC1)(c1ccccc1)c1ccccc1.Cl [LOPERAMIDE HYDROCHLORIDE]              158
 6  COc1cc2ncnc(Nc3ccc(F)c(Cl)c3)c2cc1NC(=O)/C=C/CN1CCCCC1 [DACOMITINIB ANHYDROUS]              214
 7  COc1cc(N2CCN(C)CC2)ccc1Nc1ncc2c(n1)N(C)c1ccccc1C(=O)N2C              127
 8  Cn1nc(C(F)(F)F)cc1-c1cnc(N2CCc3cc(S(=O)(=O)Nc4c(F)cc(Cl)cc4F)cc(N4CCCC4=O)c32)nc1 [TP-020]              192
 9  O=C(Nc1cccnn1)N1CCC(=Cc2cccc(Oc3ccc(C(F)(F)F)cn3)c2)CC1              170
10  CCOc1cc2ncc(C#N)c(Nc3ccc(OCc4ccccn4)c(Cl)c3)c2cc1NC(=O)/C=C/CN(C)C [NERATINIB]              621
11  NC(=O)c1cccc(-c2cc(Nc3ccc(OC(F)(F)F)cc3)ncn2)c1              231
12  O=C(Nc1ccc(-c2ccnc(Nc3ccc(N4CCOCC4)cc3)n2)cc1)[C@@H]1CCCN1              146
13  S=C(NCCCc1c[nH]cn1)NCCCN(Cc1ccc(Cl)c(Cl)c1)c1ccc(Br)cn1              133
14  CN1C2CCC1CC(OC(c1ccc(F)cc1)c1ccc(F)cc1)C2.Cl (configuration not stated)              148
15  CCn1c(=O)c(-c2ccc(-c3cncs3)cc2Cl)cc2cnc(Nc3ccc(N4CCN(C)CC4)cc3)nc21              230
16  Cc1cc(C)c(S(=O)(=O)N(Cc2ccc(-c3cccc(S(C)(=O)=O)c3)cc2)Cc2ccc(C(F)(F)F)o2)c(C)c1              179

----------
# Test system: HEK-293T
# measurement-protocol: Multiplex assay against HEK293T
# Assay type: toxicity, cell-based
# test-settings: human, 12 h, 10 µM, compound concentration 10 uM, replicate 1
result-type: Population Apoptotic (%)

>>> df
                                   compound  result
0  CCc1cccc(CC)c1NC(=O)c1nn(C)c2c1CCc1cnc(Nc3ccc(N4CCN(C)CC4)cc3OC)nc1-2     19%
1  CCc1cccc(CC)c1NC(=O)c1nn(C)c2c1CCc1cnc(Nc3ccc(C(=O)NC4CCN(C)CC4)cc3OC(F)(F)F)nc1-2     80%
2  CN1CCN(C(=O)C(C)(C)c2ccc(C(=O)Nc3cn4cc(-c5cc(C(C)(C)C)cc(C(C)(C)C)c5)ccc4n3)cc2)CC1 [T3-CLK-N]     21%
3  CNc1cc(Oc2cc(C(=O)Nc3cc(N4CCN(C)CC4)cc(C(F)(F)F)c3)ccc2C)ncn1     86%
4  O=C(Nc1ccc(Cl)cc1)Nc1cccc(-c2cccc(N3CCCC3)n2)c1     85%
5  CNC(=O)c1ccc(Nc2nc(OC3CCCC3)c3c(-c4ccc5nc(C)oc5c4)c[nH]c3n2)c(OC)c1     26%
6  Cc1cn(-c2cc(NC(=O)c3ccc(C)c(Nc4nccc(-c5cccnc5)n4)c3)cc(C(F)(F)F)c2)cn1 [NILOTINIB]     91%
7  O=C(Nc1ccc(-n2nc(-c3cccnc3)cc2C(F)(F)F)cn1)c1ccc(-c2ccccc2)c(F)c1 [BI 2049]     63%

----------
# System: Fibroblast
# measurement-protocol: Multiplex assay against human fibroblast
# Type: toxicity, cell-based
# test-settings: 24 h, 10 µM, compound concentration 10 uM, replicate 1
Rule: measured Population Healthy Nuclei (%) below 40% gets Y; anything equal to or greater than 40% gets N.

>>> print(df.to_string())
                                   compound  cat
0  Cc1ccc2nc(NCCN)c3ncc(C)n3c2c1.O=C(O)C(F)(F)F.O=C(O)C(F)(F)F    N
1  CN1CCC(=C2c3ccccc3CC(=O)c3sccc32)CC1.O=C(O)/C=C/C(=O)O [KETOTIFEN FUMARATE]    N
2  CCCS(=O)(=O)Nc1ccc(F)c(C(=O)c2c[nH]c3ncc(Cl)cc23)c1F    N
3  CCc1cccc(CC)c1NC(=O)c1nn(C)c2c1CCc1cnc(Nc3ccc(N4CCN(C)CC4)cc3OC)nc1-2    N
4  C=C1/C(=C\C=C2/CCC[C@]3(C)[C@@H]([C@H](C)/C=C/[C@H](C)C(C)C)CC[C@@H]23)C[C@@H](O)C[C@@H]1O    Y
5  O=C(Nc1ccc(Cl)cc1)Nc1cccc(-c2cccc(N3CCCC3)n2)c1    Y
6  O=C(Nc1ccc(-n2nc(-c3cccnc3)cc2C(F)(F)F)cn1)c1ccc(-c2ccccc2)c(F)c1    N
7  CN1C2CCC1CC(OC(c1ccc(F)cc1)c1ccc(F)cc1)C2.Cl (stereo not drawn)    N

----------
Let's look at some compounds and their measured Population Healthy Nuclei (%).
# Tested on: HEK-293T
# measurement-protocol: Multiplex assay against HEK293T
# Assay type: toxicity, cell-based
# test-settings: human, 48 h, 10 µM, compound concentration 10 uM, replicate 1
result-type: Population Healthy Nuclei (%)

>>> df
                                   compound  unit_of_measurement  numeric_readout
0  COc1cc(N2CCN(C)CC2)ccc1Nc1ncc2c(n1)N(C)c1ccccc1C(=O)N2C                    %               33
1  CNc1cc(Oc2cc(C(=O)Nc3cc(N4CCN(C)CC4)cc(C(F)(F)F)c3)ccc2C)ncn1                    %                1
2  O=C(Nc1ccc(Cl)cc1)Nc1cccc(-c2cccc(N3CCCC3)n2)c1                    %                7
3  CN(C)C(=O)C(CCN1CCC(O)(c2ccc(Cl)cc2)CC1)(c1ccccc1)c1ccccc1.Cl [LOPERAMIDE HYDROCHLORIDE]                    %                0
4  CCOc1cc(C(=O)N2CCC(N3CCN(C)CC3)CC2)ccc1Nc1ncc2c(n1)N(C1CCCC1)c1ccccc1C(=O)N2C                    %                2
5  CCCn1c(=O)c2[nH]c(-c3cnn(Cc4cccc(C(F)(F)F)c4)c3)nc2n(CC)c1=O                    %               11
6  CCOc1cc2ncc(C#N)c(Nc3ccc(OCc4ccccn4)c(Cl)c3)c2cc1NC(=O)/C=C/CN(C)C                    %               46
